Test system: rice (Oryza sativa)
ASSAY METHOD TEXT: Test B flooded paddy test
Type: in vivo
REPORTED CONDITIONS: Flood, 31 g ai/ha; scale 0 to 100 (0 no effect, 100 complete control)
ASSAY READOUT: Rice plant response rating
Write no unit; give the number alone.

COMPOUND	Rice plant response rating
O=C(C1=C(O)C2CCC(C2)C1=O)c1cnc(-c2ccccc2)n(C2CCCCCC2)c1=O (stereo not drawn)	0
CCn1c(Cc2ccccc2)ncc(C(=O)C2=C(O)CCCC2=O)c1=O	0
O=C1CCCC(O)=C1C(=O)c1cnc(-c2cccc(Cl)c2)n(CC2CCCO2)c1=O (stereo not drawn)	0
CCc1ccc(-n2c(-c3cccc(Br)c3)ncc(C(=O)C3=C(O)CCCC3=O)c2=O)cc1	15
CCc1ccc(-n2c(-c3cc(F)cc(F)c3)ncc(C(=O)C3=C(O)CCCC3=O)c2=O)cc1	20

Now for a further compound.
Reported Rice plant response rating ( CCCc1ncc(C(=O)C2=C(O)CCCC2=O)c(=O)n1Cc1ccccc1 ) = 0

###

Test system: green foxtail (Setaria viridis)
ASSAY METHOD TEXT: Test B pre-/postemergence plant response
Assay type: in vivo
REPORTED CONDITIONS: Postemergence, 31 g ai/ha; 0 to 100 scale (0 no effect, 100 complete control)
ASSAY READOUT: Plant response rating, Foxtail, Green
Write no unit; give the number alone.

// solved cases for Plant response rating, Foxtail, Green follow
MOLECULE	ASSAY READOUT	MEASURED
COCCn1c(-c2ccsc2)ncc(C(=O)C2=C(O)C3CCC(C3)C2=O)c1=O (stereo not shown)	Plant response rating, Foxtail, Green	85
COCCn1c(-c2cccc(F)c2)ncc(C(=O)C2=C(O)C3CCC(C3)C2=O)c1=O (stereo not shown)	Plant response rating, Foxtail, Green	90
O=C1CCCC(O)=C1C(=O)c1cnc(-c2cccs2)n(C2CCCCC2)c1=O	Plant response rating, Foxtail, Green	65

Now for a further molecule.
Reported Plant response rating, Foxtail, Green ( COc1ccc(-n2c(-c3ccccc3)ncc(C(=O)C3=C(O)CCCC3=O)c2=O)cc1OC ) = 60

###

Test system: ducksalad (Heteranthera limosa)
ASSAY METHOD TEXT: Test B flooded paddy test
Format: in vivo
REPORTED CONDITIONS: Flood (flooded paddy test), 62 g ai/ha; scale of 0 to 100 where 0 is no effect and 100 is complete control; 13 to 15 days
Excerpt: Plant species in the flooded paddy test consisted of rice (Oryza sativa), umbrella sedge (Cyperus difformis), ducksalad (Heteranthera limosa) and barnyardgrass (Echinochloa crus-galli) grown to the 2-leaf stage for testing. […] Treated plants and controls were maintained in a greenhouse for 13 to 15 days, after which time all treated plants were visually evaluated and compared to controls. […]
Strictly below 40 in Plant response rating, Ducksalad: criterion met. Otherwise: criterion not met.

COMPOUND	CATEGORY LABEL
O=C1CCCC(O)=C1C(=O)c1cnc(-c2cccc(F)c2)n(C2CCCCC2)c1=O	criterion not met
O=C(C1=C(O)C2CCC(C2)C1=O)c1cnc(-c2cc(F)c(F)c(F)c2)n(C2CCCCC2)c1=O (centres unmarked)	criterion met
CCCCc1ncc(C(=O)C2=C(O)CCCC2=O)c(=O)n1-c1cccc(C)c1	criterion met
CCCCn1c(-c2cc(F)cc(F)c2)ncc(C(=O)C2=C(O)C3CCC(C3)C2=O)c1=O (centres unmarked)	criterion not met
O=C1CCCC(O)=C1C(=O)c1cnc(-c2ccc(Cl)s2)n(-c2ccccc2)c1=O	criterion met

Please check: Plant response rating, Ducksalad for CCn1c(Cc2ccccc2)ncc(C(=O)C2=C(O)CCCC2=O)c1=O , strictly under 40 or not? criterion not met

Please check: Plant response rating, Ducksalad for COCCCn1c(-c2cccc(C)c2)ncc(C(=O)C2=C(O)CCCC2=O)c1=O , strictly under 40 or not? criterion not met

###

System: barnyardgrass (Echinochloa crus-galli)
ASSAY METHOD TEXT: Test A pre-/postemergence plant response
Type: in vivo
REPORTED CONDITIONS: Preemergence, 125 g ai/ha; 0 to 100 scale, 0 = no effect, 100 = complete control
ASSAY READOUT: Plant response rating, Barnyardgrass
Write no unit; give the number alone.

Reported Plant response rating, Barnyardgrass ( CCCCn1c(-c2cccc(F)c2)ncc(C(=O)C2=C(O)CCCC2=O)c1=O ) = 10

Reported Plant response rating, Barnyardgrass ( CCCCc1ncc(C(=O)C2=C(O)CCCC2=O)c(=O)n1-c1cccc(C)c1 ) = 10

Reported Plant response rating, Barnyardgrass ( Cc1cc(-n2c(-c3cccc(F)c3)ncc(C(=O)C3=C(O)CCCC3=O)c2=O)ccc1F ) = 10

Reported Plant response rating, Barnyardgrass ( Cc1ccc(-n2c(-c3ccccc3)ncc(C(=O)C3=C(O)CCCC3=O)c2=O)cc1 ) = 10

Reported Plant response rating, Barnyardgrass ( CCc1ccc(-n2c(-c3cccc(Cl)c3)ncc(C(=O)C3=C(O)CCCC3=O)c2=O)cc1 ) = 0

Reported Plant response rating, Barnyardgrass ( COc1ccc(-n2c(-c3ccccc3)ncc(C(=O)C3=C(O)CCCC3=O)c2=O)cc1OC ) = 20

###

System: corn (Zea mays)
ASSAY METHOD TEXT: Test A pre-/postemergence plant response
Type: in vivo
REPORTED CONDITIONS: Preemergence, 500 g ai/ha; 0 to 100 scale, 0 = no effect, 100 = complete control
Recorded Plant response rating, Corn values for a group of compounds are listed next.
Write no unit; give the number alone.

// solved cases for Plant response rating, Corn follow
CCCn1c(-c2cccs2)ncc(C(=O)c2cnn(CC)c2O)c1=O 0
CCc1ccc(-n2c(-c3ccccc3)ncc(C(=O)C3=C(O)CCCC3=O)c2=O)cc1 0

Now for a further compound.
Reported Plant response rating, Corn ( Cc1ccc(-n2c(-c3cccc(F)c3)ncc(C(=O)C3=C(O)CCCC3=O)c2=O)cc1 ) = 40

###

Recorded Plant response rating, Corn values for a group of molecules are listed next.
Test system: corn (Zea mays)
ASSAY METHOD TEXT: Test A pre-/postemergence plant response
Type: in vivo
REPORTED CONDITIONS: Postemergence, 125 g ai/ha; 0 to 100 scale where 0 is no effect and 100 is complete control
Write no unit; give the number alone.

Reported Plant response rating, Corn ( CCc1ccc(-n2c(-c3cccc(Cl)c3)ncc(C(=O)C3=C(O)CCCC3=O)c2=O)cc1 ) = 10

Reported Plant response rating, Corn ( CCCc1ncc(C(=O)C2=C(O)CCCC2=O)c(=O)n1Cc1ccc(OC)c(OC)c1 ) = 0

Reported Plant response rating, Corn ( CCCCn1c(-c2cc(F)cc(F)c2)ncc(C(=O)C2=C(O)C3CCC(C3)C2=O)c1=O (stereo not shown) ) = 40

###

System: large crabgrass (Digitaria sanguinalis)
ASSAY METHOD TEXT: Test A pre-/postemergence plant response
Type: in vivo
REPORTED CONDITIONS: Preemergence, 500 g ai/ha; 0 to 100 scale, 0 = no effect, 100 = complete control
Recorded Plant response rating, Crabgrass, Large values for a group of molecules are listed next.
Write no unit; give the number alone.

Cc1cccc(-c2ncc(C(=O)C3=C(O)CCCC3=O)c(=O)n2C2CCCCC2)c1 30

Reported Plant response rating, Crabgrass, Large ( CCc1ccc(-n2c(-c3cccc(Cl)c3)ncc(C(=O)C3=C(O)CCCC3=O)c2=O)cc1 ) = 60

Reported Plant response rating, Crabgrass, Large ( O=C1CCCC(O)=C1C(=O)c1cnc(-c2ccc(F)cc2)n(C2CCCCC2)c1=O ) = 60

###

Recorded Plant response rating, Foxtail, Giant values for a group of compounds are listed next.
System: giant foxtail (Setaria faberii)
ASSAY METHOD TEXT: Test A pre-/postemergence plant response
Format: in vivo
REPORTED CONDITIONS: Postemergence, 125 g ai/ha; 0 to 100 scale where 0 is no effect and 100 is complete control
Write no unit; give the number alone.

COMPOUND	Plant response rating, Foxtail, Giant
CCCCn1c(-c2cccc(F)c2)ncc(C(=O)C2=C(O)C3CCC(C3)C2=O)c1=O (stereo not shown)	90
Cc1cc(-n2c(-c3cccc(F)c3)ncc(C(=O)C3=C(O)CCCC3=O)c2=O)ccc1F	80
CCCCn1c(-c2cc(F)cc(F)c2)ncc(C(=O)C2=C(O)CCCC2=O)c1=O	90
CCCn1c(-c2cccs2)ncc(C(=O)c2cnn(CC)c2O)c1=O	0
COCCCn1c(-c2cccc(Br)c2)ncc(C(=O)C2=C(O)CCCC2=O)c1=O	80
CCCCCc1ncc(C(=O)C2=C(O)CCCC2=O)c(=O)n1-c1ccccc1	20

Reported Plant response rating, Foxtail, Giant ( O=C1CCCC(O)=C1C(=O)c1cnc(-c2cccc(F)c2)n(CCC(F)(F)F)c1=O ) = 30

###

Recorded Chickweed plant response rating (0 to 100 scale) values for a group of molecules are listed next.
Tested on: chickweed (Stellaria media)
ASSAY METHOD TEXT: Test B postemergence plant response
Assay type: in vivo
REPORTED CONDITIONS: 62 g ai/ha, postemergence; 0 is no effect, 100 is complete control; 13 to 15 days
Write no unit; give the number alone.

MOLECULE	MEASURED
COCCn1c(-c2cc(F)cc(F)c2)ncc(C(=O)C2=C(O)CCCC2=O)c1=O [Compound 119]	80
CCCn1c(-c2cccc(C(F)(F)F)c2)ncc(C(=O)C2=C(O)CCCC2=O)c1=O [Compound 155]	100
CCCn1c(-c2ccc(F)cc2)ncc(C(=O)C2=C(O)CCCC2=O)c1=O [Compound 102]	80
O=C1CCCC(O)=C1C(=O)c1cnc(-c2ccccc2)n(C2CCCC2)c1=O [Compound 131]	80
COCCn1c(-c2cccc(C)c2)ncc(C(=O)C2=C(O)CCCC2=O)c1=O [Compound 117]	95
Cc1ccccc1-c1ncc(C(=O)C2=C(O)CCCC2=O)c(=O)n1-c1ccccc1 [Compound 82]	90

Reported Chickweed plant response rating (0 to 100 scale) ( COCCn1c(-c2ccccc2)ncc(C(=O)C2=C(O)CCCC2=O)c1=O [Compound 85] ) = 95

Data provenance is patent US8952024B2.
